Reference source for all entries: ChEMBL document CHEMBL3044961

Tested on: Escherichia coli
experiment: Antibacterial activity against Escherichia coli at 1 ug/ml after 24 hr by well diffusion method
Assay type: functional
protocol.conditions: read-out: IZ
measured.property: zone of inhibition at 1 µg/mL (mm)
Write the value in mm as a bare number.

Input line: // output zone of inhibition at 1 µg/mL; input CCc1nnc(NN=C(C(C)=O)C(C)=O)s1 ; system Escherichia coli
Output line: 8

----------
Tested on: Aspergillus flavus
experiment: Antifungal activity against Aspergillus flavus at 1 ug/ml after 48 hr by well diffusion method
Format: functional
protocol.conditions: read-out: IZ
measured.property: zone of inhibition at 1 µg/mL (mm)
Write the value in mm as a bare number.

CC(=O)C(=NNc1nnc(C)s1)C(C)=O ... 12
CCc1nnc(NN=C(C(C)=O)C(C)=O)s1 ... 10
Cc1nnc(NN=C(C#N)C#N)s1 ... 12
CC1(C)S[C@@H]2[C@H](NC(=O)[C@H](N)c3ccccc3)C(=O)N2[C@H]1C(=O)O ... 31
CCOC(=O)/C(C#N)=N/Nc1nnc(C)s1 ... 11

Input line: Given CCOC(=O)/C(C#N)=N/Nc1nnc(CC)s1 , respond with its zone of inhibition at 1 µg/mL.
Output line: 12

Input line: Given CCc1nnc(NN=C(C#N)C#N)s1 , respond with its zone of inhibition at 1 µg/mL.
Output line: 12

----------
Test system: U-937
experiment: Cytotoxicity against Homo sapiens (human) U937 cells after 96 hr by MTT assay
Format: functional, cell-based
protocol.conditions: Homo sapiens, U-937, 96 h; read-out: IC50
The entries below come with measured pIC50 values attached.
Expect pIC50 as a plain number equal to -log10 of the molar concentration.

Here's what some known entries look like.
CCOC(=O)/C(C#N)=N/Nc1nnc(C)s1 ... 4.71
O=NN(CCCl)C(=O)NCCCl [CARMUSTINE] ... 4.91
O=c1[nH]cc(F)c(=O)[nH]1 [FLUOROURACIL] ... 5.33

Input line: // output pIC50; input CC(=O)C(=NNc1nnc(C)s1)C(C)=O ; system U-937
Output line: 4.61

----------
Tested on: Proteus vulgaris
experiment: Antibacterial activity against Proteus vulgaris at 1 ug/ml after 24 hr by well diffusion method
Assay type: functional
protocol.conditions: read-out: IZ
measured.property: zone of inhibition at 1 µg/mL

Here's what some known entries look like.
CCc1nnc(NN=C(C(C)=O)C(C)=O)s1 ... 6 mm
CC(=O)C(=NNc1nnc(C)s1)C(C)=O ... 7 mm
CC1(C)S[C@@H]2[C@H](NC(=O)[C@H](N)c3ccccc3)C(=O)N2[C@H]1C(=O)O ... 33 mm
CCOC(=O)/C(C#N)=N/Nc1nnc(C)s1 ... 8 mm

We next turn to a different compound, shown below.
Input line: Given Cc1nnc(NN=C(C#N)C#N)s1 , respond with its zone of inhibition at 1 µg/mL.
Output line: 10 mm

----------
Tested on: Micrococcus luteus
experiment: Antibacterial activity against Micrococcus luteus at 1 ug/ml after 24 hr by well diffusion method
Assay type: functional
protocol.conditions: read-out: IZ
measured.property: zone of inhibition at 1 µg/mL (mm)
Write the value in mm as a bare number.

Here's what some known entries look like.
Cc1nnc(NN=C(C#N)C#N)s1 ... 7
CC1(C)S[C@@H]2[C@H](NC(=O)[C@H](N)c3ccccc3)C(=O)N2[C@H]1C(=O)O [AMPICILLIN] ... 32
CCc1nnc(NN=C(C(C)=O)C(C)=O)s1 ... 8
CCOC(=O)/C(C#N)=N/Nc1nnc(CC)s1 ... 6

We next turn to a different compound, shown below.
Input line: // output zone of inhibition at 1 µg/mL; input CCc1nnc(NN=C(C#N)C#N)s1 ; system Micrococcus luteus
Output line: 6
